Item-by-item account of log10 of IC50
Target: PLK4 (h) (Homo sapiens)
Sequence (O00444 whole entry): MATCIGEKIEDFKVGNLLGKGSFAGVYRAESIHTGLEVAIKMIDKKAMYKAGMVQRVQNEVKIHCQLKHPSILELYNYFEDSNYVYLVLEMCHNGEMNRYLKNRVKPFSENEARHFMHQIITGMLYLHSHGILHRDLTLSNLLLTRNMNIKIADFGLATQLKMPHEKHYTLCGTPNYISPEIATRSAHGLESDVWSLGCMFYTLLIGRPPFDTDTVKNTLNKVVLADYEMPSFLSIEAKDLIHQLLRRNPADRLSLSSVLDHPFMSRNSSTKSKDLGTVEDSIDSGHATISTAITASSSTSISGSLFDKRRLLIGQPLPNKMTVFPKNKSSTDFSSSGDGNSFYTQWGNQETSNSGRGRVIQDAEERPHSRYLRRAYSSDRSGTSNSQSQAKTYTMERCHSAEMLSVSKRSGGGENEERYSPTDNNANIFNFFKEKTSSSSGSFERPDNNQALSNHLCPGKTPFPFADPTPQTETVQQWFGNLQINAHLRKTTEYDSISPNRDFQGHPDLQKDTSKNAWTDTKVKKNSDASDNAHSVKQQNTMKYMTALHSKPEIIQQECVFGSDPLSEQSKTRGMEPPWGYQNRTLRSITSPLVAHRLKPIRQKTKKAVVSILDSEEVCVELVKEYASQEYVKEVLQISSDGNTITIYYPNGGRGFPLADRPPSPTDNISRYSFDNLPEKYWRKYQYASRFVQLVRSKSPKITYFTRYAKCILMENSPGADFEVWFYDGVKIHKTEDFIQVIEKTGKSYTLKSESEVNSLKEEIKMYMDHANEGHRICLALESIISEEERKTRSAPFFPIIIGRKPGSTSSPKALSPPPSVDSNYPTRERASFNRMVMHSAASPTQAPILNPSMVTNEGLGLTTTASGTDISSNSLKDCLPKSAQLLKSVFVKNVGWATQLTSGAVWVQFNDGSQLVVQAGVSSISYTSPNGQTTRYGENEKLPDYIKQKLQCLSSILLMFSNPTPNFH
Assay: PLK-4 human kinase scintillation proximity assay (SPA)
Assay type: biochemical
Settings: 1 μM ATP, 60 minutes at r.t., read-out: PLK4 pIC50 (converted)
quantity_name: log10 of IC50 (log10 of the value in nM)

- structure_smiles: "COc1ccc2cc1OCC(=O)N(C)CCN(C)Cc1c[nH]c3ncnc(c13)N2"
  log10 of IC50: 2.10
- structure_smiles: "CN1CCCN(C)C(=O)COc2cc(ccc2OCCO)Nc2ncnc3[nH]cc(c23)C1"
  log10 of IC50: 1.80
- structure_smiles: "O=C1CCCOc2cc(ccc2N2CCOCC2)Nc2ncnc3[nH]cc(c23)CN2CCN1CC2"
  log10 of IC50: 3.90
- structure_smiles: "O=C1CCCOc2cccc(c2)Nc2ncnc3[nH]cc(c23)CN2CCN1CC2"
  log10 of IC50: 3.80
- structure_smiles: "COc1ccc(NC(=O)Nc2ccc3cc2OCC(=O)N(C)CCCN(C)Cc2c[nH]c4ncnc(c24)N3)cc1"
  log10 of IC50: 1.40
- structure_smiles: "COc1ccc2cc1OCCCCC(=O)N1CCN(CC1)Cc1c[nH]c3ncnc(c13)N2"
  log10 of IC50: 2.80
- structure_smiles: "CN1CCCN(C)C(=O)COc2cc(ccc2OC(F)F)Nc2ncnc3[nH]cc(c23)C1"
  log10 of IC50: 1.60
